Target: mTOR (Homo sapiens)
Construct: FLAG; made in house
Test: In Vitro mTOR Kinase Assay (Echo), Test (a)(ii)
Assay type: biochemical
Settings: table of enzyme assay Test (a)(ii); read-out: Test (a)(ii) IC50
Quantity Kind: IC50 (nM)

Answered cases to consult:
- Molecule: "CC[C@H]1COCCN1c1cc(C2(S(=O)(=O)c3ccccc3)CC2)nc(-c2ccc(NC(=O)Nc3cnn(C)c3)cc2)n1 [Example 74e]"
  IC50 / nM: 5.06
- Molecule: "Cc1nc(S(=O)(=O)C2(c3cc(N4CCOC[C@@H]4C)nc(-c4ccc(NC(=O)Nc5cnn(C)c5)cc4)n3)CC2)sc1C"
  IC50 / nM: 13.7
- Molecule: "C[C@H]1COCCN1c1cc(C2(S(=O)(=O)c3ccccc3Cl)CC2)nc(-c2ccc(NC(=O)Nc3cnn(C)c3)cc2)n1 [Example 76f]"
  IC50 / nM: 6.78
- Molecule: "CC[C@H]1COCCN1c1cc(C2(S(=O)(=O)c3ccccc3)CC2)nc(-c2ccc(NC(=O)NCCCO)cc2)n1 [Example 74h]"
  IC50 / nM: 3.21
- Molecule: "C[C@H]1COCCN1c1cc(C2(S(=O)(=O)CCCO)CCC2)nc(-c2ccc(NC(=O)NC3CC3)cc2)n1"
  IC50 / nM: 5.39

(P) C[C@H]1COCCN1c1cc(C2(S(=O)(=O)C3CCCCC3)CC2)nc(-c2ccc(NC(=O)NC3CCC3)cc2)n1 [Example 26a]
(Q) C[C@H]1COCCN1c1cc(C2(S(=O)(=O)C3CC3)CCC2)nc(-c2ccc(NC(=O)Nc3cnn(C)c3)cc2)n1 [Example 36h]
Incoming: For P and Q , which recorded IC50 is lower? To answer, give the label that identifies your chosen option.
Outgoing: Q
(Q: 3.14 nM, P: 6.72 nM)

----------
Target: mTOR (Homo sapiens)
Construct: FLAG; made in house
Assay: In Vitro mTOR Kinase Assay (Echo), Test (a)(ii)
Type: biochemical
Settings: table of enzyme assay Test (a)(ii); read-out: Test (a)(ii) IC50
Quantity Kind: IC50 (nM)

Answered cases to consult:
- Compound: "C[C@H]1COCCN1c1cc(C2(S(=O)(=O)c3ccccc3)CC2)nc(-c2ccc(NC(=O)N3CCC(O)C3)cc2)n1 (some centres unmarked) [Example 36do]"
  IC50 (nM): 27.7
- Compound: "C[C@H]1COCCN1c1cc(C2(S(=O)(=O)c3ccc(F)cc3)CC2)nc(-c2ccc(NC(=O)NC3(CO)CC3)cc2)n1 [Example 36x]"
  IC50 (nM): 182
- Compound: "C[C@H]1COCCN1c1cc(C2(S(=O)(=O)c3ccc(F)cc3F)CC2)nc(-c2ccc(NC(=O)NC3CC3)cc2)n1 [Example 57a]"
  IC50 (nM): 10.4

(I) C[C@H]1COCCN1c1cc(C2(S(=O)(=O)C3CC3)CC2)nc(-c2ccc(NC(=O)NCCF)cc2)n1 [Example 64t]
(II) C[C@H]1COCCN1c1cc(C2(S(=O)(=O)c3ccccc3)CC2)nc(-c2ccc(NC(=O)NCCC#N)cc2)n1 [Example 36bm]
Incoming: Which value of IC50 is numerically greater: that of I or that of II ? To answer, give the label that identifies your chosen option.
Outgoing: I

----------
Molecular target: mTOR (Homo sapiens, UniProt P42345)
Construct: FLAG; made in house
Sequence (P42345 1362-2549): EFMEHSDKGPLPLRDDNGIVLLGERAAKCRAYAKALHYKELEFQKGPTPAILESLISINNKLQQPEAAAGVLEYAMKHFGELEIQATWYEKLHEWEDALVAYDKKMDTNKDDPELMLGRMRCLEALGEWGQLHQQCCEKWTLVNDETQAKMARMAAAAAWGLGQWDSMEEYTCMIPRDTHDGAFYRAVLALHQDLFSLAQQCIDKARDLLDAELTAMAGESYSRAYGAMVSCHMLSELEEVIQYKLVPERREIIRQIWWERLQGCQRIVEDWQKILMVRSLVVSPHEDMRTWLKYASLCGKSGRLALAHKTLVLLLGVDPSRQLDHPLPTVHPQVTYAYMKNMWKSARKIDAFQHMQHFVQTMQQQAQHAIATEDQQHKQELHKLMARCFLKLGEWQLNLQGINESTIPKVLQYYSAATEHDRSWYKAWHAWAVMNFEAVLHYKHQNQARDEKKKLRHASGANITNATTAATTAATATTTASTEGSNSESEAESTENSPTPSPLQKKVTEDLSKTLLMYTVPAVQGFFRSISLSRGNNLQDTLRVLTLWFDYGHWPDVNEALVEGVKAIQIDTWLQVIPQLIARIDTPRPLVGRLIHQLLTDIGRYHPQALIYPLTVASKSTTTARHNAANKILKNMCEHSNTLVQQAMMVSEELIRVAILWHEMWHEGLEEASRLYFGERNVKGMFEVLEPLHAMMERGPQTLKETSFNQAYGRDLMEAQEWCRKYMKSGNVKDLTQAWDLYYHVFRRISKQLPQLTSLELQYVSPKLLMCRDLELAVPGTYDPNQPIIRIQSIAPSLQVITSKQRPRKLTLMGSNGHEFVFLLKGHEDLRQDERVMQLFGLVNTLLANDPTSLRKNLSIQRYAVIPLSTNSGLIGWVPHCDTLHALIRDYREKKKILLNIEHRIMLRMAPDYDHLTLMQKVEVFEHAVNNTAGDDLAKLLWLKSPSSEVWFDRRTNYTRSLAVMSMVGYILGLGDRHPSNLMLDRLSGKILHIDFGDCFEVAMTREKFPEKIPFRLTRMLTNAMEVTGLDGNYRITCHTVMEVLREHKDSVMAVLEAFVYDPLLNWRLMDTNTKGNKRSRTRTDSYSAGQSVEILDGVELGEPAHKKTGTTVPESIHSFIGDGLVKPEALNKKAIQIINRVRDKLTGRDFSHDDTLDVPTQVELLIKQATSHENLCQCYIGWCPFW
Assay: In Vitro mTOR Kinase Assay (Echo), Test (a)(ii)
Format: biochemical
Conditions: table of enzyme assay Test (a)(ii); read-out: Test (a)(ii) IC50
pIC50: −log10 of the molar value.
Quantity Kind: pIC50

- Compound: "CCNC(=O)Nc1ccc(-c2nc(N3CCOC[C@@H]3C)cc(C3(S(=O)(=O)c4c(C)nn(C(F)F)c4C)CC3)n2)cc1 [Example 75b]"
  Subject Of Test: "mTOR (Homo sapiens, UniProt P42345)"
  pIC50: 7.42

(I) C[C@H]1COCCN1c1cc(C2(S(=O)(=O)c3ccc(F)cn3)CC2)nc(-c2ccc(NC(=O)NC3CC3)cc2)n1 [Example 48a]
(II) CCCNC(=O)Nc1ccc(-c2nc(N3CCOC[C@@H]3C)cc(C3(S(=O)(=O)CCO)CC3)n2)cc1 [Example 16e]
(III) CCNC(=O)Nc1ccc(-c2nc(N3CCOC[C@@H]3CC)cc(C3(S(=O)(=O)c4ccccc4)CC3)n2)cc1
Incoming: Order each entry by recorded pIC50, climbing from the minimum. Answer format: list of labels, ordered as asked.
Outgoing: II, III, I

(I) Cc1noc(C)c1S(=O)(=O)C1(c2cc(N3CCOC[C@@H]3C)nc(-c3ccc(NC(=O)NC4CC4)cc3)n2)CC1 [Example 59a]
(II) C[C@H]1COCCN1c1cc(C2(S(=O)(=O)c3nccs3)CC2)nc(-c2ccc(NC(=O)NC3CC3)cc2)n1
(III) CNC(=O)Nc1ccc(-c2nc(N3CCOC[C@@H]3C)cc(C3(S(=O)(=O)c4c(C)noc4C)CC3)n2)cc1
(IV) C[C@H]1COCCN1c1cc(C2(S(=O)(=O)c3ccc(OC(F)F)cc3)CC2)nc(-c2ccc(NC(=O)NCC(F)F)cc2)n1 [Example 64f]
(V) C[C@H]1COCCN1c1cc(C2(S(=O)(=O)c3cncc(F)c3)CC2)nc(-c2ccc(NC(=O)NC3CC3)cc2)n1 [Example 17c]
Incoming: Returns the items ordered by pIC50, from maximum to minimum. Answer format: list of labels, ordered as asked.
Outgoing: II, V, IV, III, I
(II: 9.45, V: 8.75, IV: 8.28, III: 8.05, I: 7.65)

(A) C[C@H]1COCCN1c1cc(C2(S(=O)(=O)c3ccc(F)cc3)CC2)nc(-c2ccc(NC(=O)Nc3cnn(C)c3)nc2)n1 [Example 14m]
(B) C[C@H]1COCCN1c1cc(C2(S(=O)(=O)c3cc(F)cc(F)c3)CC2)nc(-c2ccc(NC(=O)NCCCO)cc2)n1 [Example 19l]
Incoming: Which value of pIC50 is numerically greater: that of A or that of B ? To answer, give the label that identifies your chosen option.
Outgoing: B
(B: 8.82, A: 7.84)

(1) C[C@H]1COCCN1c1cc(C2(S(=O)(=O)c3ccccc3F)CC2)nc(-c2ccc(NC(=O)NCC3(O)CC3)cc2)n1 [Example 58g]
(2) CNC(=O)Nc1ccc(-c2nc(N3CCOC[C@@H]3C)cc(C3(S(=O)(=O)C4CC4)CCNCC3)n2)cc1 [Example 21a]
(3) C[C@H]1COCCN1c1cc(C2(S(=O)(=O)CCCO)CCOCC2)nc(-c2ccc(NC(=O)NCCC#N)cc2)n1 [Example 36ce]
Incoming: Returns the items ordered by pIC50, from maximum to minimum. Answer format: list of labels, ordered as asked.
Outgoing: 1, 2, 3
(1: 7.99, 2: 7.42, 3: 6.38)
